# Subject Of Test: human Eg5 (monomeric construct Eg52-386) (Homo sapiens)
# Sequence (P52732 2-386): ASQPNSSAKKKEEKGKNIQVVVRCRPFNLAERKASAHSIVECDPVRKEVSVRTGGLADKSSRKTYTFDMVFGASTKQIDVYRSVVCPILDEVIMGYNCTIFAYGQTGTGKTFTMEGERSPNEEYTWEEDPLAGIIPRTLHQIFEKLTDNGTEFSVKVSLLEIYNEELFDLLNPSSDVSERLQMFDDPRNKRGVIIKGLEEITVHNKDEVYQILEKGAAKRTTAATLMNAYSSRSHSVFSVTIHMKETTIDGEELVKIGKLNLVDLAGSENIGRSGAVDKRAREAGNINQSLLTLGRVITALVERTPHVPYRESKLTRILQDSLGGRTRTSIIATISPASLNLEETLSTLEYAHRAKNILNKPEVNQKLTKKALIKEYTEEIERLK
Recorded Metric: pIC50
Reminder that pIC50 means the negative base-10 logarithm of the concentration expressed in mol/L.

Example cases with answers are listed next.
Exam item: Reported pIC50 for CC1=C(C(=O)OCc2ccccc2)C(c2cccc(O)c2)NC(=S)N1 (centres unmarked) [Compound 6] : what is it?
Marked response: 4.99

Exam item: May I ask what pIC50 has been recorded for CC1=C(C(=O)c2cccc(I)c2)C(c2cccc(O)c2)NC(=S)N1 (centres unmarked) [Compound 33] ?
Marked response: 6.30

Exam item: Please look up its pIC50: CCOC(=O)C1=C(CC)N(C)C(=S)NC1c1cccc(O)c1 (centres unmarked) [Compound 30]
Marked response: 5.00

Exam item: Given CC1=C(C(=O)c2cccc(F)c2)C(c2cccc(O)c2)NC(=S)N1 (centres unmarked) [Compound 31] , state its recorded pIC50.
Marked response: 6.09

Next:
Exam item: May I ask what pIC50 has been recorded for CC1=C(C(=O)c2ccccc2)C(c2ccc(O)cc2)NC(=S)N1 (centres unmarked) [Compound 11] ?
Marked response: 4.83

---

# Subject Of Test: human Eg5 (monomeric construct Eg52-386) (Homo sapiens, UniProt P52732)
# Sequence (P52732 2-386): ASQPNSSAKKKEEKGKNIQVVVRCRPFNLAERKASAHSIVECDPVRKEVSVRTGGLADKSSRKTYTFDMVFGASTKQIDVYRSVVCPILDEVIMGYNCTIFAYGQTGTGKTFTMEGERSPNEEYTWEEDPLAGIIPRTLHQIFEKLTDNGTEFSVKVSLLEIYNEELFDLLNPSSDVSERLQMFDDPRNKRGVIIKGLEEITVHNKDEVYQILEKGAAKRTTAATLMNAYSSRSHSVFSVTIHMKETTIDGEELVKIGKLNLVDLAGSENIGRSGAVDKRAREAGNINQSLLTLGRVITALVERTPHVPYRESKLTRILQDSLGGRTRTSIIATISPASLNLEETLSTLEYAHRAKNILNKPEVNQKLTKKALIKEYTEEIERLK
Measured IC50 by item
Quick reminder: number only, in µM, skip the unit.

Exam item: Recorded IC50 of CC1=C(C(=O)OCc2ccccc2)C(c2cccc(O)c2)NC(=S)N1C (stereo not drawn) , please.
Marked response: 9.8

Exam item: Can you share its IC50? I mean this compound: CC(=O)C1=C(C)N(C)C(=S)NC1c1cccc(O)c1 (stereo not drawn)
Marked response: 133

Exam item: Fill in the blank: the reported IC50 of CC1=C(C(=O)OCc2ccccc2)C(c2ccccc2)NC(=S)N1 (stereo not drawn) is ____.
Marked response: 11.8

Exam item: What IC50 value was documented for this compound, CCOC(=O)C1=C(C)N(C)C(=S)NC1c1cccc(O)c1 (stereo not drawn) ?
Marked response: 6.3

Exam item: Look at this compound and give its reported IC50. CCOC(=O)C1=C(C)NC(=S)NC1c1cccc(Cl)c1 (stereo not drawn)
Marked response: 10

Others:
Exam item: Can you look up the measured IC50 of CCOC(=O)C1=C(C)NC(=S)NC1c1ccccc1 (stereo not drawn) for me?
Marked response: 9.5

Exam item: Value lookup for IC50; key = CCOC(=O)C1=C(C)NC(=S)NC1c1ccccc1F (stereo not drawn)
Marked response: 20

Exam item: Which IC50 is listed for CCOC(=O)C1=C(C)N(C)C(=S)NC1c1ccccc1 (stereo not drawn) ?
Marked response: 21

Exam item: Look at this compound and give its reported IC50. COc1ccc(C2NC(=S)NC(C)=C2C(=O)OCc2ccccc2)cc1 (stereo not drawn)
Marked response: 6.6

Exam item: // returns reported IC50 for input CC1=C(C(=O)c2ccccc2)C(c2ccccc2)NC(=O)N1C (stereo not drawn)
Marked response: 5

Exam item: Value lookup for IC50; key = CC1=C(C(=O)c2ccccc2)C(c2ccc(O)cc2)NC(=S)N1C (stereo not drawn)
Marked response: 24

Exam item: Name the recorded IC50 for CCOC(=O)C1=C(C)NC(=S)NC1c1cccc(F)c1 (stereo not drawn) .
Marked response: 14

---

# Subject Of Test: human Eg5 (monomeric construct Eg52-386) (Homo sapiens, UniProt P52732)
# Construct: the basal ATPase activity was measured using 1-4 μM of Eg5 (2-386) for the above test; made in house
# Protocol Details: In vitro inhibition of the ATPase activity of kinesin Eg5 (pyruvate kinase/lactate dehydrogenase coupled assay)
# Format: biochemical
# Condition Label: in vitro ATPase activity of Eg5; inhibitor concentration not given
Recorded Metric: % inhibition

Exam item: // % inhibition lookup, key: CCOC(=O)C1=C(C)NC(=S)NC1c1cccc(F)c1 (stereo not drawn)
Marked response: 60%

Exam item: Entry CC1=C(C(=O)c2ccccc2)C(c2ccccc2)NC(=S)N1C (stereo not drawn) : reported % inhibition = ?
Marked response: ≧90%^

Exam item: Item under review: CCOC(=O)C1=C(C)NC(=S)NC1c1ccccc1Cl (stereo not drawn) . Reported % inhibition?
Marked response: 60%

Exam item: What value of measured % inhibition is listed for CC(=O)C1=C(C)NC(=S)NC1c1ccccc1 (stereo not drawn) ?
Marked response: ≧90%^

Exam item: Item under review: CCOC(=O)C1=C(C)NC(=S)NC1c1ccccc1F (stereo not drawn) . Reported % inhibition?
Marked response: 60%

***
Exam item: Give its % inhibition value. Item: CC1=C(C(=O)c2cccc(I)c2)C(c2cccc(O)c2)NC(=S)N1 (stereo not drawn)
Marked response: ≧90%^

Exam item: Look up % inhibition for this molecule: CCOC(=O)C1=C(C)NC(=S)NC1c1cccc(Cl)c1 (stereo not drawn)
Marked response: 60%

Exam item: Endpoint output: % inhibition of CC1=C(C(=O)c2cccc(Cl)c2)C(c2cccc(O)c2)NC(=S)N1 (stereo not drawn) . Value?
Marked response: ≧90%^

Exam item: Which value of % inhibition has been reported for CCOC(=O)C1=C(C)N(C)C(=S)NC1c1ccccc1 (stereo not drawn) in the records?
Marked response: 60%

Exam item: Looking for the measured % inhibition of CC1=C(C(=O)c2ccccc2)C(c2cccc(O)c2)NC(=S)N1C (stereo not drawn) , can you help?
Marked response: ≧90%^

Exam item: // returns reported % inhibition for input CCOC(=O)C1=C(C)N(C)C(=S)NC1c1cccc(O)c1 (stereo not drawn)
Marked response: ≧90%^

---

# Subject Of Test: human Eg5 (monomeric construct Eg52-386) (Homo sapiens, UniProt P52732)
# Sequence (P52732 2-386): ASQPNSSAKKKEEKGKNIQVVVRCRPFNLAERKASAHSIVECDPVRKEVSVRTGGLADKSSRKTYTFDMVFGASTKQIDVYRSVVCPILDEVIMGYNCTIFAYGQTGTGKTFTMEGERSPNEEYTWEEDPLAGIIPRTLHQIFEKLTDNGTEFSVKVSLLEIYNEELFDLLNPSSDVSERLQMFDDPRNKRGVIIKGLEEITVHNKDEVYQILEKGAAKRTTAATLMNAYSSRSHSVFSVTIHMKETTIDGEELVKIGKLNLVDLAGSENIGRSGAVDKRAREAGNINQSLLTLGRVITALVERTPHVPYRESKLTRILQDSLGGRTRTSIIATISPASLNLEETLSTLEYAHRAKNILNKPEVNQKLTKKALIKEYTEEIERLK
Condition met if IC50 is below 1 µM. Condition not met if not; exact matches included in Condition not met.

Answered examples (3):
Exam item: Is it true that IC50 reported for CCOC(=O)C1=C(C)NC(=S)NC1c1ccccc1Cl (stereo not drawn) is less than 1 µM?
Marked response: Condition not met

Exam item: Just wondering, is IC50 of CCOC(=O)C1=C(C)NC(=S)NC1c1cccc(OC)c1 (stereo not drawn) below 1 µM?
Marked response: Condition not met

Exam item: hey, is IC50 for CCOC(=O)C1=C(C)NC(=S)NC1c1ccc(O)cc1 (stereo not drawn) lower than 1 µM or not?
Marked response: Condition not met

Next:
Exam item: hey, is IC50 for CC(=O)C1=C(C)NC(=S)NC1c1ccccc1 (stereo not drawn) lower than 1 µM or not?
Marked response: Condition not met

Exam item: State whether 1 µM exceeds IC50 recorded for CC1=C(C(=O)c2ccccc2)C(c2cccc(O)c2)NC(=S)N1 (stereo not drawn) .
Marked response: Condition met

Exam item: Is it true that IC50 reported for CC(=O)C1=C(C)NC(=S)NC1c1cccc(O)c1 (stereo not drawn) is less than 1 µM?
Marked response: Condition met

Exam item: Dear reviewer, please state whether CC1=C(C(=O)c2cccc(Cl)c2)C(c2cccc(O)c2)NC(=S)N1 (stereo not drawn) has IC50 strictly beneath 1 µM.
Marked response: Condition met

Exam item: Find out if reported IC50 for CC1=C(C(=O)c2ccccc2)C(c2ccccc2)NC(=S)N1C (stereo not drawn) is less than 1 µM
Marked response: Condition not met

Exam item: Please let me know if COc1cccc(C(=O)C2=C(C)NC(=S)NC2c2cccc(O)c2)c1 (stereo not drawn) shows IC50 below 1 µM.
Marked response: Condition not met

Exam item: Item CCOC(=O)C1=C(C(C)C)NC(=S)NC1c1cccc(O)c1 (stereo not drawn) : IC50 beneath 1 µM, strictly?
Marked response: Condition not met

Exam item: Is it true that IC50 reported for CC(=O)C1=C(C)N(C)C(=S)NC1c1ccccc1 (stereo not drawn) is less than 1 µM?
Marked response: Condition not met

Exam item: Item C=CCN1C(=S)NC(c2cccc(O)c2)C(C(=O)c2ccccc2)=C1C(F)(F)F (stereo not drawn) : IC50 beneath 1 µM, strictly?
Marked response: Condition not met

Exam item: Threshold test, IC50 < 1 µM: CC(=O)C1=C(C)NC(=S)NC1c1ccc(O)cc1 (stereo not drawn)
Marked response: Condition not met

Exam item: Would you kindly verify if IC50 of CC1=C(C(=O)c2ccccc2)C(c2cccc(O)c2)NC(=O)N1C (stereo not drawn) is strictly less than 1 µM?
Marked response: Condition met

Exam item: Item CCOC(=O)C1=C(C)NC(=S)NC1c1cccc(O)c1 (stereo not drawn) : IC50 beneath 1 µM, strictly?
Marked response: Condition not met
